# Target Of Assay: IN-GCN2 interaction (6xHis-IN / GST-GCN2) (UniProt P04585+Q9P2K8)
# Sequence (Q9P2K8 192-1024, other chains not shown): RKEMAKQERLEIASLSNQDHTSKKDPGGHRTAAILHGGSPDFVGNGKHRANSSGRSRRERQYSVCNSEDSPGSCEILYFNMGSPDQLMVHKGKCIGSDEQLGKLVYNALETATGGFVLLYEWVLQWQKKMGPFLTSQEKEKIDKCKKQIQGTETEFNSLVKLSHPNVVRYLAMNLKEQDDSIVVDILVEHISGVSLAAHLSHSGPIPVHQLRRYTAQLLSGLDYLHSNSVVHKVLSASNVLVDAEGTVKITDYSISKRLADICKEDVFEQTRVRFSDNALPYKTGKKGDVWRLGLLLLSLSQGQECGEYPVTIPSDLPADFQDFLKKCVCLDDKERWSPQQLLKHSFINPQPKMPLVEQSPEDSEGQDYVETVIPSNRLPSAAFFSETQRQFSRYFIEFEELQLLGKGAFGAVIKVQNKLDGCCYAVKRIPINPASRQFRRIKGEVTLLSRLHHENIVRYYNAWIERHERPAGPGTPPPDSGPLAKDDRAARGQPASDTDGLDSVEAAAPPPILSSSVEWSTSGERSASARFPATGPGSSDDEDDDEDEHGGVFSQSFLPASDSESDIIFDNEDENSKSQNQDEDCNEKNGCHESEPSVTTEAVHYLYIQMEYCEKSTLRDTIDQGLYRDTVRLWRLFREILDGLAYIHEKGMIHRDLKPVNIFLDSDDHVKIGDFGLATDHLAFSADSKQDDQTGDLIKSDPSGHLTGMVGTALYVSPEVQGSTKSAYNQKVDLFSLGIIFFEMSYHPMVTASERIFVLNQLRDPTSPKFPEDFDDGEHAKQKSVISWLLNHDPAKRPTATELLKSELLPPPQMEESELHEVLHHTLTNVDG
# Assay Text: biochemical
# Format: binding, HIV-1 IN; human GCN2
# Settings: screen, single dose 100 µM, single replicate; residual AlphaLISA signal normalized to DMSO control
Rule: IN-GCN2 interaction (%) under 70% gives -1, otherwise 1.

Take a look at these entries with their results.
| Compound | Group |
| --- | --- |
| O=c1c(O)cccc2cc(O)c(O)c(O)c12 [NSC35676] | -1 |
| COc1ccc(C(=O)O[C@H]2CC[C@@]3(C)[C@@H]4CC[C@H]5[C@]6(O)C[C@H](O)[C@@]7(O)[C@@H](CN8C[C@@H](C)CC[C@H]8[C@@]7(C)O)[C@]6(O)C[C@@]53O[C@]24O)cc1OC [NSC7524] | 1 |

Lookup: Identify whether the reported IN-GCN2 interaction (%) of the following compound is 70% or greater: CO[C@H]1C[C@@H]2\C=C(C)/C=C/C=C\C(=O)N[C@H](c3ccccc3)C/C=C/CC[C@H](O)CC(=O)C2=C1O [NSC343256]
Found: -1

Lookup: Hello, I need to know if Nc1ncn([C@@H]2O[C@H](CO)[C@@H](O)[C@H]2O)c(=O)n1 [NSC102816] has measured IN-GCN2 interaction (%) not below 70%. Thanks!
Found: 1

Lookup: IN-GCN2 interaction (%) >= 70% for O=c1oc2c(O)c(O)cc3c(=O)oc4c(O)c(O)cc1c4c23 [NSC407286] ?
Found: -1

Lookup: IN-GCN2 interaction (%) >= 70% for O=C(O)/C(O)=C(/O)C(=O)O [NSC30238] ?
Found: 1

Lookup: Does Nc1ncnc2c1ncn2[C@@H]1O[C@H](CO)[C@@H](O)[C@H]1O [NSC7652] have a reported IN-GCN2 interaction (%) of at least 70%?
Found: -1

Lookup: Hi team, for C[C@]12C(=O)C=CCC1=CC[C@@H]1[C@@H]2CC[C@]2(O)C(=O)O[C@@]3(C)[C@H]4C[C@]5(C)[C@@H](CO[C@@]16O[C@@]32[C@H]5C6=O)C(=O)O4 [NSC287088] , is the recorded IN-GCN2 interaction (%) at or above 70%?
Found: 1

Lookup: Is reported IN-GCN2 interaction (%) greater than or equal to 70% here: Cc1c2ccncc2c(C)c2c1[nH]c1ccccc12 [NSC71795]
Found: 1
